Each entry below carries its reported Activity.
- TARGET: Muscarinic acetylcholine receptor M5 (Homo sapiens) (UniProt P08912)
- Sequence (P08912 whole entry): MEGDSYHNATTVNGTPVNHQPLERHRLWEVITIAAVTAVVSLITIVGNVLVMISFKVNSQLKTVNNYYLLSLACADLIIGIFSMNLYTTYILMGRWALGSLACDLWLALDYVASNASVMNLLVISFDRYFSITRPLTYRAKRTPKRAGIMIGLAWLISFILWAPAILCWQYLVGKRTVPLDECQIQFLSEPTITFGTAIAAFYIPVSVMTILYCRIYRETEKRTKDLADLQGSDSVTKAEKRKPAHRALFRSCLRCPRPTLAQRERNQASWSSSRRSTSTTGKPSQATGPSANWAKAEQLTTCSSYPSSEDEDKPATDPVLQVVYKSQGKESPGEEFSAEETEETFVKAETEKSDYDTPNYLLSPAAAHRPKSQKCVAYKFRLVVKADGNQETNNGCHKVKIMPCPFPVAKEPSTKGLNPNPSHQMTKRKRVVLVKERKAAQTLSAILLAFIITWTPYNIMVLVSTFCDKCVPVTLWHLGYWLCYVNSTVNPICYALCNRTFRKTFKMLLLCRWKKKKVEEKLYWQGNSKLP
- PROTOCOL: Displacement of [3H]quinuclidinyl benzylate from human muscarinic M5 receptor expressed in CHO cells at 10 uM
- Assay type: cell-based

{"columns": ["STRUCTURE SMILES", "TARGET", "Activity"],
 "data": [
  ["COC1=NO[C@@H]([C@@H]2CCCN2C)C1", "Muscarinic acetylcholine receptor M5 (Homo sapiens) (UniProt P08912)", "< 50%"],
  ["CC1=NO[C@@H]([C@@H]2CCCN2C)C1", "Muscarinic acetylcholine receptor M5 (Homo sapiens) (UniProt P08912)", "< 50%"]
]}

Now turn to the next compound.
State the recorded Activity for this entry: CC1=NO[C@H]([C@@H]2CCCN2)C1
< 50%

---

- TARGET: Neuronal acetylcholine receptor subunit alpha-7 (Rattus norvegicus, UniProt Q05941)
- Sequence (Q05941 whole entry): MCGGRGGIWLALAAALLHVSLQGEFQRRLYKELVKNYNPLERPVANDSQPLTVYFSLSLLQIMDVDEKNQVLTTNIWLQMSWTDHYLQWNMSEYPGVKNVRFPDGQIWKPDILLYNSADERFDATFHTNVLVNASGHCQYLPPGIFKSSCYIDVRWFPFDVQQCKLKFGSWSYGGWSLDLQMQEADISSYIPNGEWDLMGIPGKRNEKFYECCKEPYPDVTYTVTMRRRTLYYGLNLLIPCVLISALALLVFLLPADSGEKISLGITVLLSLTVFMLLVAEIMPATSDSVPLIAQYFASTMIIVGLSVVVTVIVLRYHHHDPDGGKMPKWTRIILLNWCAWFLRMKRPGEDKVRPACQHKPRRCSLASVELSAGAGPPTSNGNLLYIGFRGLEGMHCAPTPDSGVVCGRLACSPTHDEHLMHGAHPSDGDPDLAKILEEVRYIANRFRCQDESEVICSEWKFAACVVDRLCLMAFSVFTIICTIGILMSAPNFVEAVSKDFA
- PROTOCOL: Displacement of [125I]-alpha-Bungarotoxin from alpha7 nAChR rat cortical membranes by gamma counting
Note to self: use Met only for Ki readings below 10 µM; a reading exactly at 10 µM still gets Not met.

Record COC1=NO[C@@H]([C@@H]2CCCN2)C1 : is its Ki strictly below 10 µM?
Not met

Please give the result for CN1CCC[C@H]1[C@H]1CC(Br)=NO1 too.
Not met

// query: CC1=NO[C@@H]([C@@H]2CCCN2C)C1
Not met

Request: CC(C)(C)OC1=NO[C@H]([C@@H]2CCCN2)C1
Not met

Then what about the compound CC1=NO[C@@H]([C@@H]2CCCN2)C1 ?
Not met

And what about the compound COC1=NO[C@@H]([C@@H]2CCCN2C)C1 ?
Met

Moving on to the next compound: CC1=NO[C@H]([C@@H]2CCCN2)C1
Met

Quick one: COC1=NO[C@H]([C@@H]2CCCN2)C1
Not met

What about this compound? BrC1=NO[C@@H]([C@@H]2CCCN2)C1
Not met

---

- TARGET: Neuronal acetylcholine receptor; alpha4/beta2 (Rattus norvegicus, UniProt P09483+P12390)
- Sequence (P09483 whole entry): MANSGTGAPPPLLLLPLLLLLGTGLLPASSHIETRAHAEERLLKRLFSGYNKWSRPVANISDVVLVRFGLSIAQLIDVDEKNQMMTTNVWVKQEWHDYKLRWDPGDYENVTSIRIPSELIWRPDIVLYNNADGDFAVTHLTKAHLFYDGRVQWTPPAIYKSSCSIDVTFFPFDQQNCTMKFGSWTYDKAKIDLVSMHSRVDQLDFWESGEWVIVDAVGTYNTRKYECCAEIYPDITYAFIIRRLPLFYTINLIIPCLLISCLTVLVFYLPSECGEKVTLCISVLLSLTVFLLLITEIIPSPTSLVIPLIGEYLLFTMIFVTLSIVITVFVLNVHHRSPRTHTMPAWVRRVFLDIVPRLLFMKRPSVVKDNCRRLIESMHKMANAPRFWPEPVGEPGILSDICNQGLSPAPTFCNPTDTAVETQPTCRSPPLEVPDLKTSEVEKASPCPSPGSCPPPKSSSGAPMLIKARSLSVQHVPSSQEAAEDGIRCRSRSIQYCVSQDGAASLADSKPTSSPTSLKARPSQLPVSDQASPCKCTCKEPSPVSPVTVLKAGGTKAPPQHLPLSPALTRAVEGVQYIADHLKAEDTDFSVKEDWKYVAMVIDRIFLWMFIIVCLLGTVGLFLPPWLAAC
- Sequence (P12390 whole entry): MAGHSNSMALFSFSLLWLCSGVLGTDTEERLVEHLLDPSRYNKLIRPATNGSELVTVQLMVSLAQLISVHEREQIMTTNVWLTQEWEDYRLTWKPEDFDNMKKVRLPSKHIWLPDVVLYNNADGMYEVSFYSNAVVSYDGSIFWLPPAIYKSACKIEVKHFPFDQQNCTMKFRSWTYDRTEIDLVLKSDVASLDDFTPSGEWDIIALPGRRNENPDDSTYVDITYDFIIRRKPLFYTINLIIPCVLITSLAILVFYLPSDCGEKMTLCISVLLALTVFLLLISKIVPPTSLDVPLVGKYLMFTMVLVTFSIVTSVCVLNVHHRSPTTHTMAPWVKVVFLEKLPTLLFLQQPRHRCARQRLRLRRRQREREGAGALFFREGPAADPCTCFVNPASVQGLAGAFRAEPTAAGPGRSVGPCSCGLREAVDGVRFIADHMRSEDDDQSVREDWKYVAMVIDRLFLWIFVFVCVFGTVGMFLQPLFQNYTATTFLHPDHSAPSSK
- PROTOCOL: Displacement of [3H]epibatidine from alpha4beta2 nAChR in rat cortical membranes by beta counting
pKi: −log10 of the molar value.
So basically: pKi at 5 or higher? That is 1.0. Lower than 5? That is 0.0.

Some entries whose results are on file:
{"columns": ["STRUCTURE SMILES", "GROUP"],
 "data": [
  ["CC1=NO[C@H]([C@@H]2CCCN2)C1", 1.0],
  ["COC1=NO[C@H]([C@@H]2CCCN2)C1", 0.0],
  ["CC(C)(C)OC1=NO[C@H]([C@@H]2CCCN2)C1", 0.0]
]}

Reported pKi at or above 5? BrC1=NO[C@@H]([C@@H]2CCCN2)C1
1.0

And COC1=NO[C@@H]([C@@H]2CCCN2)C1 ?
0.0

Same read-out for CC1=NO[C@@H]([C@@H]2CCCN2)C1 ?
0.0

Would you mind doing CN1CCC[C@H]1[C@H]1CC(Br)=NO1 as well?
1.0
